# credit: PubChem BioAssay (NCI)

# Tested on: BT-549 breast
# Procedure summary: NCI tumour cell line growth inhibition, 48 h

Compound: CCNCCCn1c2c(c3ccc(F)cc3c1=O)C(=O)c1cc(OC)cnc1-2
GI50: 0.936 µM
//
Compound: CCn1c2ccccc2c2cc(/C=C(/C#N)C(N)=S)ccc21
GI50: 18.6 µM
//
Compound: CC1OC(OC2C(O)C(OCCc3ccc(O)c(O)c3)OC(CO)C2OC(=O)/C=C/c2ccc(O)c(O)c2)C(O)C(O)C1OC1OCC(O)(CO)C1O (stereo not given)
GI50: 19.8 µM
//
Compound: CNC(=O)C(CCc1ccccc1)NC(=O)C(CC(=O)NO)CC(C)C (stereo not given)
GI50: > 25 µM
//
Compound: COc1cc(/C=C/C(=O)Nc2ccc3c(c2)/C(=C\c2cccn2C)C(=O)N3)cc(OC)c1OC
GI50: 6.33 µM

----------
# System: HCT-15 colon
# Procedure summary: NCI tumour cell line growth inhibition, 48 h; in the data active = GI50 below about 0.43 µM; inactive = the rest
Outcome codes: class 1 (active), class 0 (inactive)

Compound: Cc1c([C@H](C(Cl)Cl)[C@H](O)[C@H]2C[C@H](C)C(=O)O2)ccc2c1C(=O)[C@H]1[C@H]2C[C@@H](Br)[C@@]23O[C@@H](CO[C@H]2O)CC13C (stereo not given in full)
Class label: class 1
--
Compound: Nc1ccccc1C#C/C=C\C#Cc1cnccn1
Class label: class 0
--
Compound: N#Cc1c(-c2ccc(Cl)cc2)csc1NC(=O)Nc1ccc(Cl)c(C(F)(F)F)c1
Class label: class 1
--
Compound: COc1ncc(-c2ccc3nccc(C#CCCCCC(=O)O)c3c2)cc1NS(=O)(=O)c1ccc(F)cc1F
Class label: class 1
--
Compound: C=C1c2c(C)nn(-c3ccc(OC)cc3)c2N(C)C23C[C@@H]1C1(C)c4c(C)nn(-c5ccc(OC)cc5)c4N(C)C(C)(C[C@H]12)C3 (stereo not given in full)
Class label: class 0
--
Compound: N#C/C(=C\c1cn(Cc2ccccc2)c2ccccc12)C(=O)Nc1ncc(Cc2ccccc2Cl)s1
Class label: class 0
--
Compound: O=C1C(Cl)=C(Nc2cccc(O)c2)C(=O)N1CCc1ccccc1
Class label: class 0
--
Compound: COC(=O)C1=C(OC(=O)c2ccccc2)C(C(=O)OC)[C@]2(O)[C@@H](C(=O)OC)C1CC(c1ccccc1OC)[C@@H]2C(=O)OC (stereo not given in full)
Class label: class 0
--
Compound: O=C(NC(=S)Nc1ccccn1)c1ccccc1
Class label: class 0
--
Compound: Cc1ccc(/C(=N/NS(=O)(=O)c2ccc([N+](=O)[O-])cc2)Sc2cc(Cl)c(C)cc2S(N)(=O)=O)cc1
Class label: class 0

----------
Measured TGI values are reported for all entries that follow.
# System: MDA-MB-231 breast
# Procedure summary: NCI tumour cell line growth inhibition, 48 h

Molecule: COC(=O)C1C(O)C(C)C(=O)C(C)/C=C\C=C(C)C(=O)Nc2c(C)c(OC(C)=O)c3c(c2O)C(=O)C(C)=C2OCOC(=C23)C(C)=CC(C)(O)C(O)C(C)C1O (stereo unspecified)
TGI: > 100 µM
--
Molecule: COC(=O)[C@](NC(=O)OCc1ccccc1)([C@@H](C)S(=O)c1ccc(C)cc1)C(F)(F)F (stereo partly specified)
TGI: > 100 µM
--
Molecule: C[n+]1cn(C2=C([O-])c3ccccc3C(=O)/C2=N\S(=O)(=O)c2ccccc2)c2ccccc21
TGI: > 100 µM
--
Molecule: CC1(F)C=CC(=O)C=C1
TGI: > 100 µM
--
Molecule: O=C(C=P(c1ccccc1)(c1ccccc1)c1ccccc1)c1ccc(-c2cccc([N+](=O)[O-])c2)cc1
TGI: 8 µM
--
Molecule: c1ccc(NNC2=NCCN2)cc1
TGI: > 100 µM
--
Molecule: COc1ccc2c(c1)[C@@H]1c3cc(OC)c(OC)cc3CCN1CCC2
TGI: > 100 µM
--
Molecule: COc1cc(/C=C/C(=O)Nc2ccc3c(c2)/C(=C\c2cccn2C)C(=O)N3)cc(OC)c1OC
TGI: 17.8 µM
--
Molecule: O=c1[nH][nH]c(=O)n1Cc1cccc(Cn2c(=O)[nH][nH]c2=O)c1
TGI: > 100 µM
--
Molecule: C=CCSc1nc2c(N)ncnc2n1C1OC(CO)C(O)C1O (stereo unspecified)
TGI: > 100 µM
--
Molecule: CCOC(=O)Cc1csc(NC(=O)COC(=O)c2ccc(N)cc2)n1
TGI: > 100 µM
--
Molecule: O=C(NC(=S)Nc1ccccn1)c1ccccc1
TGI: > 100 µM
--
Molecule: Nc1n[n+](=O)c2ccccc2n1O
TGI: > 100 µM
--
Molecule: NCCCCCCn1c(-c2ccc(Br)cc2)csc1=Nc1ccccc1
TGI: 30.3 µM
--
Molecule: COc1ccc2c3c1O[C@H]1[C@@H](O)CC[C@@]4(O)[C@@H](C2)N(C)CC[C@]314
TGI: > 100 µM
--
Molecule: CCNCCCn1c2c(c3ccc(F)cc3c1=O)C(=O)c1cc(OC)cnc1-2
TGI: 1.93 µM
--
Molecule: Oc1ccc(-c2nc3ccc4ccccc4c3c3c2CCCC3)c(O)c1
TGI: 37 µM
--
Molecule: CCOC(=O)/C=C/C1=C(c2ccsc2)c2ccc(OC)cc2CC1
TGI: 19.7 µM
--
Molecule: C(=N\c1nc2cc3sc(/N=C/c4cccs4)nc3cc2s1)/c1cccs1
TGI: > 100 µM
--
Molecule: Nc1c(Br)cc2c(c1Br)Cc1cc(Br)ccc1-2
TGI: > 100 µM
--
Molecule: O=C1C=CC(=O)c2c(O)c(N3CCN(c4ccccn4)CC3)c(Cl)c(O)c21
TGI: 3.55 µM

----------
# System: K-562 leukemia
# Procedure summary: NCI tumour cell line growth inhibition, 48 h
Measured TGI values are reported for all entries that follow.

Compound: N#Cc1c(-c2ccc([N+](=O)[O-])cc2)cc(-c2ccc(Nc3ccnc4cc(C(F)(F)F)ccc34)cc2)[nH]c1=O
TGI: > 100 µM

Compound: COc1cc(CN[C@H]2CCc3cc(OC)c(OC)c(OC)c3-c3ccc(SC)c(=O)cc32)cc(OC)c1
TGI: 10.4 µM

Compound: O=C1c2ccccc2-c2nc(-c3ccncc3)cc3c2c1nc1ccccc13
TGI: > 100 µM

Compound: CCOC(=O)c1ccc2c(c1)[n+](=O)c(C(=O)C1CCCS1)c(C(F)(F)F)n2[O-] (stereo not given)
TGI: 0.437 µM

Compound: COC1=CC(=O)c2c(ccc3ncnc(N)c23)C1=O
TGI: 1.58 µM

Compound: N#C/C(C(=O)Nc1ccccc1)=C(/N)N1CCCC1
TGI: > 100 µM

Compound: O=C1[C@@H]2C(c3cccc([N+](=O)[O-])c3)=NO[C@@H]2C(=O)N1c1ccc(Cc2ccc(N3C(=O)[C@H]4C(c5cccc([N+](=O)[O-])c5)=NO[C@H]4C3=O)cc2)cc1
TGI: > 100 µM

Compound: CNC(=O)C(CCc1ccccc1)NC(=O)C(CC(=O)NO)CC(C)C (stereo not given)
TGI: > 25 µM

Compound: COc1ccc(-c2c(-c3cc(OC)c(OC)c(OC)c3)nc3sc(C4CC4)nn23)cc1OC
TGI: > 100 µM

Compound: COc1cc(N2C(=O)C(=O)C3(CCCCC3)C2=O)cc(OC)c1OC
TGI: > 100 µM

Compound: COc1cc(C(=O)c2c(-c3ccccc3)oc3c(OC)cccc23)cc(OC)c1O
TGI: > 100 µM

Compound: N#C/C(=C\c1cn(Cc2ccccc2)c2ccccc12)C(=O)Nc1ncc(Cc2ccccc2Cl)s1
TGI: > 100 µM

Compound: c1ccc2c(c1)c1ccccc1c1n[se]nc21
TGI: > 100 µM

Compound: CCOC(=O)c1nc2cc(C(F)(F)F)ccc2nc1Oc1ccc(OC)cc1
TGI: > 100 µM

Compound: COc1ccc2c(c1)C(N)=C(c1ccccc1OC)C2=O
TGI: > 100 µM

Compound: O=C(NO)C(=O)Nc1cc(Cl)ccc1Cl
TGI: > 100 µM

Compound: O=C1C(Cl)=C(Nc2cccc(O)c2)C(=O)N1CCc1ccccc1
TGI: 63.9 µM

Compound: COc1cc(/C=C/C(=O)Oc2ccc(NC(C)=O)cc2)ccc1C(=O)OCc1ccccc1
TGI: > 100 µM

Compound: CCOP(=S)(OCC)Oc1ccc2c(c1)OC(=O)C1(Cl)C2(C)C2(Cl)C(=O)Oc3cc(OP(=S)(OCC)OCC)ccc3C12C (stereo not given)
TGI: 77.3 µM

Compound: COc1ccc(Nc2nn3c(=O)c4c(C)c(C)sc4nc3s2)cc1
TGI: > 100 µM

----------
# Tested on: ACHN renal
# Procedure summary: NCI tumour cell line growth inhibition, 48 h; in the data active = GI50 below about 0.43 µM; inactive = the rest
Outcome codes: active, inactive

Compound: CC1(C)CCC2(CC1)N[C@@H](C(=O)N[C@@H]1CC[C@@H](C(N)=O)OC1)[C@H](c1ccnc(Cl)c1F)[C@]21C(=O)Nc2cc(Cl)ccc21
Subject of test: ACHN renal
Class label: active

Compound: N#C/C(=C\c1cn(Cc2ccccc2)c2ccccc12)C(=O)Nc1ncc(Cc2ccccc2Cl)s1
Subject of test: ACHN renal
Class label: inactive

Compound: O=C(Nc1ccc(-n2cc(-c3ccncc3)c(-c3ccc(O)c(Cl)c3)n2)cc1)c1cc(C(F)(F)F)cc(C(F)(F)F)c1
Subject of test: ACHN renal
Class label: inactive

Compound: COC(=O)C1=C(OC(=O)c2ccccc2)C(C(=O)OC)[C@]2(O)[C@@H](C(=O)OC)C1CC(c1ccccc1OC)[C@@H]2C(=O)OC (stereo partly specified)
Subject of test: ACHN renal
Class label: inactive

Compound: N#Cc1c(-c2ccc(Cl)cc2)csc1NC(=O)Nc1ccc(Cl)c(C(F)(F)F)c1
Subject of test: ACHN renal
Class label: active

Compound: O=C(Nc1cccc(-n2ccc3c(NC(=O)c4ccccc4)nccc32)c1)Nc1ccc(Cl)c(C(F)(F)F)c1
Subject of test: ACHN renal
Class label: inactive

Compound: CCOC(=O)c1c(NC(=O)COc2cccc3cccnc23)sc(C(=O)N(C)C)c1C
Subject of test: ACHN renal
Class label: inactive

Compound: COc1ncc(-c2ccc3nccc(C#CCCCCC(=O)O)c3c2)cc1NS(=O)(=O)c1ccc(F)cc1F
Subject of test: ACHN renal
Class label: inactive

Compound: Nc1ccccc1C#C/C=C\C#Cc1cnccn1
Subject of test: ACHN renal
Class label: inactive

Compound: Cc1c([C@H](C(Cl)Cl)[C@H](O)[C@H]2C[C@H](C)C(=O)O2)ccc2c1C(=O)[C@H]1[C@H]2C[C@@H](Br)[C@@]23O[C@@H](CO[C@H]2O)CC13C (stereo partly specified)
Subject of test: ACHN renal
Class label: inactive

Compound: Cc1ccc(/C(=N/NS(=O)(=O)c2ccc([N+](=O)[O-])cc2)Sc2cc(Cl)c(C)cc2S(N)(=O)=O)cc1
Subject of test: ACHN renal
Class label: inactive

Compound: CN(C)c1ccc(Nc2ncnc3ccccc23)cc1
Subject of test: ACHN renal
Class label: inactive

Compound: C=C1CC2(OC1=O)C(=O)N(C)c1ccc(I)cc12 (stereo unspecified)
Subject of test: ACHN renal
Class label: inactive

Compound: C[CH2][Sn]([CH2]C)([O]C(=O)c1cccc(OC)c1)[O][Sn]([CH2]C)([CH2]C)[O]C(=O)c1cccc(OC)c1
Subject of test: ACHN renal
Class label: inactive

Compound: CC(=O)[CH-]C(=O)c1ccccc1.CC(=O)[CH-]C(=O)c1ccccc1.CCN(CC)CC[O-].CCN(CC)CC[O-].Cl.[Hf+4]
Subject of test: ACHN renal
Class label: inactive

Compound: O=C(NC(=S)Nc1ccccn1)c1ccccc1
Subject of test: ACHN renal
Class label: inactive
